Origin of measurements: PubChem BioAssay (NCI)

- System: UO-31 renal
- experiment.description: NCI tumour cell line growth inhibition, 48 h
For each entry below, report its TGI value.

Query string: Form field: TGI recorded for C=CCc1ccc(O)c(-c2ccc(O)c(CC=C)c2)c1 with UO-31 renal (enter value)
Result string: 27.3 µM

Query string: Form field: TGI recorded for Cc1nn(C(=O)CC(=O)Nc2ccc(Cl)cc2)c(C)c1N=Nc1ccccc1C(=O)O with UO-31 renal (enter value)
Result string: > 100 µM

Query string: Form field: TGI recorded for O=C(NNC(=O)c1ccccc1O)c1cccc(Br)c1 with UO-31 renal (enter value)
Result string: > 100 µM

Query string: Form field: TGI recorded for COc1ccc(Cn2c(N)c(S(=O)(=O)c3ccc(Cl)cc3)c3nc(C#N)c(C#N)nc32)cc1 with UO-31 renal (enter value)
Result string: > 50 µM

Query string: Form field: TGI recorded for CN(CCN(C)C(=O)CCn1cc(F)c(=O)[nH]c1=O)C(=O)CCn1cc(F)c(=O)[nH]c1=O with UO-31 renal (enter value)
Result string: > 100 µM

Query string: Form field: TGI recorded for CCOC(=O)/C=C(\C(=O)OCC)n1ccc(=O)n(Cc2cn(CCCCOC(C)=O)nn2)c1=O with UO-31 renal (enter value)
Result string: 28.6 µM
